Collected IC50 values appear next to each entry.
Biological target: UniProtKB P30530
Sequence (P30530 26-894): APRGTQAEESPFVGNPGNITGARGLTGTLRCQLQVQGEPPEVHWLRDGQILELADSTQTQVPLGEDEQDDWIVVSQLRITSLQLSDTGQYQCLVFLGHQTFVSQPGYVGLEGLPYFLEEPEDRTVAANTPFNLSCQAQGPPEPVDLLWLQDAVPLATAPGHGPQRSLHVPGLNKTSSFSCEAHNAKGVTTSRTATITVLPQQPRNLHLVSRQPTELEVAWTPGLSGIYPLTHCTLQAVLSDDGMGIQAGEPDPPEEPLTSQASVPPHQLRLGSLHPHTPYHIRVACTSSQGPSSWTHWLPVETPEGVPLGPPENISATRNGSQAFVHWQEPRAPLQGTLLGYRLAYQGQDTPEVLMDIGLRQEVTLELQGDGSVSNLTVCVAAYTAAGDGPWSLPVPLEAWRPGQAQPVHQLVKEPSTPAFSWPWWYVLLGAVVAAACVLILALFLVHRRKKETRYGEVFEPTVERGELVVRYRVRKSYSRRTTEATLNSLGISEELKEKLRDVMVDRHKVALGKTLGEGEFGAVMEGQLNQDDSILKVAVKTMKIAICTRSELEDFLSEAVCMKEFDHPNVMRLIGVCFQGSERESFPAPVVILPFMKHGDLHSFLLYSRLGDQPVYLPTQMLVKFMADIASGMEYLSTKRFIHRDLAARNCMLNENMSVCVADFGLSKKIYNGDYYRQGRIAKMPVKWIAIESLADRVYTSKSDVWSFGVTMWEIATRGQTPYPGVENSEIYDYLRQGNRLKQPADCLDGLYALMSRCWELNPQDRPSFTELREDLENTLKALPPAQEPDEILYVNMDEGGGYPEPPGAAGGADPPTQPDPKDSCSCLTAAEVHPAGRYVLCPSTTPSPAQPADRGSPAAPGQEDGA
Experiment: Axl NanoBRET intracellular kinase assay (Cell Binding)
Set-up: host or cells: HEK-293
Conditions: HEK-293 cells transfected with Axl-NanoLuc fusion vector; displacement of K-5 NanoBRET tracer

{"columns": ["molecule", "IC50"],
 "data": [
  ["CC1(O)CCCCc2cc(-c3n[nH]c4ncc(-c5ccc6c(c5)CCN(C5CCCC5)CC6)cc34)ccc21 (stereo not drawn)", "100 to 1000 nM"],
  ["O=C1NCCOc2cc(-c3n[nH]c4ncc(-c5ccc6c(c5)CCN(C(=O)C5CC5)CC6)cc34)ccc21", "100 to 1000 nM"],
  ["O=C1NCCOc2cc(-c3n[nH]c4ncc(-c5ccc6c(c5)CCC(N[C@@H]5CCOC5)CC6)cc34)ccc21 (stereo partly drawn)", "< 100 nM"],
  ["O=C1NCCOc2cc(-c3n[nH]c4ncc(-c5ccc6c(c5)CNCC6)cc34)ccc21", "100 to 1000 nM"],
  ["Cc1cc2c(cc1-c1cnc3[nH]nc(-c4ccc5c(c4)OCCNC5=O)c3c1)CCC(N1CCC[C@H]1C)CC2 (stereo partly drawn)", "< 100 nM"],
  ["O=C1NCCOc2cc(-c3n[nH]c4ncc(-c5ccc6c(c5)CCC(N5CCC5)CC6)cc34)ccc21 (stereo not drawn)", "< 100 nM"]
]}

Turning now to a further record.
Exercise: State its IC50 for this molecule: `O=C1NCCOc2cc(-c3n[nH]c4ncc(-c5ccc6c(c5)CCN(C5COC5)C6)cc34)ccc21`
Solution: 100 to 1000 nM

* * *

target: recombinant human MER (Homo sapiens); test: HTRF KinEASE-TK biochemical potency, MER; conditions: 1 nM MER, 700 μM ATP
Sequence (Q12866 21-999): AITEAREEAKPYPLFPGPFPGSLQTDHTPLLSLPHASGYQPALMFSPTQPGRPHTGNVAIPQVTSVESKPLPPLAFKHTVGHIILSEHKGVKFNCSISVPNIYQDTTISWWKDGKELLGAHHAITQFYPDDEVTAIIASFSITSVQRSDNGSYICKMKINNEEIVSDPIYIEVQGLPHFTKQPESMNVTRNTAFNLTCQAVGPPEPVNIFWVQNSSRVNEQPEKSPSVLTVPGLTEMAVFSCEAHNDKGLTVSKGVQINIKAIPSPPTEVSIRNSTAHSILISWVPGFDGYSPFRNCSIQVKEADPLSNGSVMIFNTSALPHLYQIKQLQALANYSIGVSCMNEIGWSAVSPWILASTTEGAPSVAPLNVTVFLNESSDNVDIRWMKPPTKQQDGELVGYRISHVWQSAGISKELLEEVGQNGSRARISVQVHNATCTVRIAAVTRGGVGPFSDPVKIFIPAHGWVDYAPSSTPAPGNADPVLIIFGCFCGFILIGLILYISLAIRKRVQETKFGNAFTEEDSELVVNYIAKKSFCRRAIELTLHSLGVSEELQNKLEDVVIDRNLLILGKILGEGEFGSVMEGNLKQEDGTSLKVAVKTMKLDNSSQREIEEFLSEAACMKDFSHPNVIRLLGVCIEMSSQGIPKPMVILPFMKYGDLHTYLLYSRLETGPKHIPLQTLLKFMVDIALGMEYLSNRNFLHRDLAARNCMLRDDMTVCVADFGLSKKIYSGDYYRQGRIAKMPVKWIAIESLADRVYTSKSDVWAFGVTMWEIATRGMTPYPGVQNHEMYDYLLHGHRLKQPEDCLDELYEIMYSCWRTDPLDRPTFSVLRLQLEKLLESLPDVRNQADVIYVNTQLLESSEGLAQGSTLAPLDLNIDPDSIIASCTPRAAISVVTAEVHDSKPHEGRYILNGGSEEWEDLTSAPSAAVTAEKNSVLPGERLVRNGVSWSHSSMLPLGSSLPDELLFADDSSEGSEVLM
pIC50: −log10 of the molar value.
Each entry below lists one item and its recorded pIC50 value.

{"columns": ["molecule", "measured-result"],
 "data": [
  ["C[C@@H]1CCCN1C1CCc2ccc(-c3cnc4[nH]nc(-c5cc6c(cc5F)C(=O)NCCO6)c4c3)cc2CC1 (stereo partly shown)", "6.00 to 7.00"],
  ["O=C1NCCOc2cc(-c3n[nH]c4ncc(-c5ccc6c(c5)CCC(N5CC[C@@H](O)C5)CC6)cc34)ccc21 (stereo partly shown)", "6.00 to 7.00"],
  ["O=C1NCCOc2cc(-c3n[nH]c4ncc(-c5ccc6c(c5)CCC(N[C@H]5CCOC5)C6)cc34)ccc21 (stereo partly shown)", "> 7.00"],
  ["C[C@@H]1CCCN1C1CCc2ccc(-c3cnc4[nH]nc(-c5ccc6c(c5)OCCNS6(=O)=O)c4c3)cc2CC1 (stereo partly shown)", "6.00 to 7.00"],
  ["C[C@@H]1CCCN1C1CCc2ccc(-c3cnc4[nH]nc(-c5cc(F)c6c(c5)OCCNC6=O)c4c3)cc2CC1 (stereo partly shown)", "> 7.00"]
]}

Exercise: Entry `O=C1NCCOc2cc(-c3n[nH]c4ncc(-c5ccc6c(c5)CN(C5CCCC5)CC6)cc34)ccc21` needs its pIC50 filled in; supply it.
Solution: > 7.00

Exercise: Write down pIC50 measured for item O=C1NCCOc2cc(-c3n[nH]c4ncc(-c5ccc6c(c5)CCC(N5CCCC5)C6)cc34)ccc21 (stereo not shown)
Solution: > 7.00

* * *

target: recombinant human TYRO3 (Homo sapiens, UniProt Q06418); assay: HTRF KinEASE-TK biochemical potency, TYRO3; settings: 1 nM TYRO3, 700 μM ATP
Sequence (Q06418 41-890): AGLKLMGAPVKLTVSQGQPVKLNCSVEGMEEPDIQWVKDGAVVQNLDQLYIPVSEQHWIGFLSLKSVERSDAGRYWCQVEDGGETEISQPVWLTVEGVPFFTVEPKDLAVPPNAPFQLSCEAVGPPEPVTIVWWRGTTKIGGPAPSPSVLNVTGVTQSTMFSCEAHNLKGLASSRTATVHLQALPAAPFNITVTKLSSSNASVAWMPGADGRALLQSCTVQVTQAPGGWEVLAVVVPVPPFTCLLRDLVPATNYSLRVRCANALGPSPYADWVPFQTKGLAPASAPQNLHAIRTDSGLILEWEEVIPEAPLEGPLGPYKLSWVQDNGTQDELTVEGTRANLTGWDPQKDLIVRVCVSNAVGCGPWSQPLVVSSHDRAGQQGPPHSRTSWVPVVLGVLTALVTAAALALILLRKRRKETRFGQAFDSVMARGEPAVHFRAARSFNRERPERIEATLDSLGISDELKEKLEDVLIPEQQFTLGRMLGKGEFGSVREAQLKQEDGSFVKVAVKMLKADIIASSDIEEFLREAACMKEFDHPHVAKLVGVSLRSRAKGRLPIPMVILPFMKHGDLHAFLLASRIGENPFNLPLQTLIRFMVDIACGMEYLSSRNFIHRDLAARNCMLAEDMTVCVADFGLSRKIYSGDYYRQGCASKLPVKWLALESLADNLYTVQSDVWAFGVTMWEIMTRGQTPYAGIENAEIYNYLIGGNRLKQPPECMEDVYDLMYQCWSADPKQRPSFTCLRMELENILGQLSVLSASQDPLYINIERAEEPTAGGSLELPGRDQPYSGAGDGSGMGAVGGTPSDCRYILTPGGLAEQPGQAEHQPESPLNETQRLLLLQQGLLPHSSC
IC50: recorded values

The following molecules have reported results that may help.
{"columns": ["molecule", "IC50"],
 "data": [
  ["C[C@H]1CCCN1C1CCc2ccc(-c3cnc4[nH]nc(-c5ccc6c(c5)OCCNC6=O)c4c3)cc2CC1 (stereo partly shown) [Example 43]", "< 100 nM"],
  ["C[C@H]1CCCN1C1(C)CCc2ccc(-c3cnc4[nH]nc(-c5ccc6c(c5)OCCNC6=O)c4c3)cc2CC1 (stereo partly shown) [Example 24]", "< 100 nM"],
  ["C[C@@H]1CCCN1C1CCc2ccc(-c3cnc4[nH]nc(-c5cc6c(cc5F)C(=O)NCCO6)c4c3)cc2CC1 (stereo partly shown) [Example 61]", "< 100 nM"]
]}

Now consider a different molecule.
Exercise: Fill in IC50 for C[C@@H]1CNC(=O)c2ccc(-c3n[nH]c4ncc(-c5ccc6c(c5)CCC(N5CCC[C@H]5C)CC6)cc34)cc2O1 (stereo partly shown) [Example 59] tested with recombinant human TYRO3 (Homo sapiens, UniProt Q06418).
Solution: < 100 nM

* * *

molecular target: Axl (Homo sapiens); assay: Axl NanoBRET intracellular kinase assay (Cell Binding); design: host or cells: HEK-293; details: HEK-293 cells transfected with Axl-NanoLuc fusion vector; displacement of K-5 NanoBRET tracer
measured-property: IC50

Please review the entries below; each comes with its answer.
{"columns": ["molecule", "measured-result"],
 "data": [
  ["O=C1NCCOc2cc(-c3n[nH]c4ncc(-c5ccc6c(c5)CCC(N5CC[C@@H](O)C5)CC6)cc34)ccc21 (stereo partly shown)", "100 to 1000 nM"],
  ["O=C1NCCOc2cc(-c3n[nH]c4ncc(-c5ccc6c(c5)CCNC6)cc34)ccc21", "100 to 1000 nM"]
]}

Exercise: Recall and state the measured IC50 for C[C@@H]1CCCN1C1CCc2ccc(-c3cnc4[nH]nc(-c5ccc6c(c5)OCCC6(C)O)c4c3)cc2CC1 (stereo partly shown) .
Solution: < 100 nM

* * *

Catalogue of compounds with associated IC50
target: recombinant human TYRO3 (Homo sapiens, UniProt Q06418); assay: HTRF KinEASE-TK biochemical potency, TYRO3; conditions: 1 nM TYRO3, 700 μM ATP

Sample answers from the record:
{"columns": ["compound", "IC50"],
 "data": [
  ["O=C1NCCOc2cc(-c3n[nH]c4ncc(-c5ccc6c(c5)CCC(N5CCC5)CC6)cc34)ccc21 (centres unmarked) [Example 52]", "< 100 nM"],
  ["CC1(O)CCc2cc(-c3n[nH]c4ncc(-c5ccc6c(c5)CC[C@@H](N5CCCC5)CC6)cc34)ccc21 (some centres unmarked) [Example 30]", "< 100 nM"],
  ["O=C1NCCOc2cc(-c3n[nH]c4ncc(-c5ccc6c(c5)CCN(C5COC5)C6)cc34)ccc21 [Example 12]", "< 100 nM"],
  ["C[C@@H]1CCCN1C1CCc2ccc(-c3cnc4[nH]nc(-c5ccc6c(c5)C(=O)NC6(C)C)c4c3)cc2CC1 (some centres unmarked) [Example 38]", "< 100 nM"]
]}

Exercise: Recall and state the measured IC50 for O=C1NCCOc2cc(-c3n[nH]c4ncc(-c5ccc6c(c5)CN(C5CCCC5)CC6)cc34)ccc21 [Example 10] .
Solution: < 100 nM

Exercise: Entry CC1(O)CCOc2cc(-c3n[nH]c4ncc(-c5ccc6c(c5)CC[C@@H](N5CCCC5)CC6)cc34)ccc21 (some centres unmarked) [Example 31] needs its IC50 filled in; supply it.
Solution: < 100 nM

Exercise: Look up and report measured IC50 for this entry: C[C@@H]1CCCN1C1CCc2ccc(-c3cnc4[nH]nc(-c5ccc6c(c5)OCCNS6(=O)=O)c4c3)cc2CC1 (some centres unmarked) [Example 66]
Solution: 100 to 1000 nM

Exercise: Input O=C1NCCOc2cc(-c3n[nH]c4ncc(-c5ccc6c(c5)CCN(C5CC5)C6)cc34)ccc21 [Example 21] , output reported IC50.
Solution: 100 to 1000 nM

Exercise: Query IC50 for O=C1NCCOc2cc(-c3n[nH]c4ncc(-c5ccc6c(c5)CCC(NC5CCCC5)CC6)cc34)ccc21 (centres unmarked) [Example 42]
Solution: < 100 nM

Exercise: Find the measured IC50 of O=C1NCCOc2cc(-c3n[nH]c4ncc(-c5ccc6c(c5)CCC(N5CCC[C@H]5CO)CC6)cc34)ccc21 (some centres unmarked) [Example 50] and report it.
Solution: < 100 nM

Exercise: Using the record for CS(=O)(=O)N1CCc2ccc(-c3cnc4[nH]nc(-c5ccc6c(c5)OCCNC6=O)c4c3)cc2CC1 [Example 18] , state its measured IC50.
Solution: < 100 nM

Exercise: Indicate its recorded IC50; the compound in question is O=C1NCCOc2cc(-c3n[nH]c4ncc(-c5ccc6c(c5)CCC(N[C@H]5CCOC5)CC6)cc34)ccc21 (some centres unmarked) [Example 45]
Solution: < 100 nM

Exercise: For the compound C[C@@H]1CCCN1C1CCc2cc(-c3cnc4[nH]nc(-c5ccc6c(c5)OCCNC6=O)c4c3)cc(Cl)c2CC1 (some centres unmarked) [Example 65] , give its measured IC50 value.
Solution: < 100 nM

Exercise: Give IC50 for the following compound: C[C@@H]1CCCN1C1CCc2ccc(-c3cnc4[nH]nc(-c5ccc6c(c5)OCC5(CC5)NC6=O)c4c3)cc2CC1 (some centres unmarked) [Example 36]
Solution: < 100 nM

Exercise: Identify measured IC50 associated with COCCN1CCc2ccc(-c3cnc4[nH]nc(-c5ccc6c(c5)OCCNC6=O)c4c3)cc2CC1 [Example 15]
Solution: < 100 nM

Exercise: Dear colleague, please send me the reported IC50 for CC1(C)COc2cc(-c3n[nH]c4ncc(-c5ccc6c(c5)CCC(N5CCCC5)CC6)cc34)ccc2C(=O)N1 (centres unmarked) [Example 35] when you can.
Solution: < 100 nM

Exercise: Specify reported IC50 for the compound shown: CC[C@@H]1CCCN1C1CCc2ccc(-c3cnc4[nH]nc(-c5ccc6c(c5)OCCNC6=O)c4c3)cc2CC1 (some centres unmarked) [Example 25]
Solution: < 100 nM

Exercise: // fetch IC50 given entry CC(C)(O)C(=O)N1CCc2ccc(-c3cnc4[nH]nc(-c5ccc6c(c5)OCCNC6=O)c4c3)cc2CC1 [Example 19]
Solution: < 100 nM

Exercise: State its IC50 for this compound: O=C1NCCOc2cc(-c3n[nH]c4ncc(-c5ccc6c(c5)CCC(N5CCCC5)CC6)cc34)ccc21 (racemic) [Example 1]
Solution: < 100 nM

Exercise: Assign IC50 to the following record: O=C1NCCOc2cc(-c3n[nH]c4ncc(-c5ccc6c(n5)CCC(N5CCCC5)CC6)cc34)ccc21 (centres unmarked) [Example 63]
Solution: < 100 nM

The reported numbers originate from patent US20240226115A1.
